system: HEK-293T; test: Multiplex assay against HEK293T; format: toxicity, cell-based; conditions: human, 24 h, 1 µM, compound concentration 1 uM, replicate 1
Examples of compounds with documented Population Normal (%) follow.
# answer = value followed by unit

INSERT INTO results (compound, assay_system, readout, result) VALUES
  ('COc1cc(-n2cnc3cc(-c4ccc(Cl)cc4)sc3c2=O)ccc1OCCN1CCCC1', 'HEK-293T', 'Population Normal (%)', '85%');

**Query** Tell me Population Normal (%) reported for CN1CCN(c2ccc(OC(F)(F)F)c(Nc3ncc4c(n3)-c3c(c(C(N)=O)nn3CCO)CC4)c2)CC1
**Result** 85%

**Query** Tell me Population Normal (%) reported for O=C1NCN(c2ccccc2)C12CCN(CCCOc1ccc(F)cc1)CC2 [SPIRAMIDE]
**Result** 89%

**Query** Tell me Population Normal (%) reported for C[C@@]1(C(=O)Nc2ccc(F)nc2)CCCN1c1nc(Nc2cc(C3CC3)n[nH]2)c2cccn2n1
**Result** 79%

----------
Examples of compounds with documented Population Mitotic Cells (%) follow.
test system: HEK-293T; assay: Multiplex assay against HEK293T; type: toxicity, cell-based; conditions: human, 48 h, 1 µM, compound concentration 1 uM, replicate 2

Solved cases below.
INSERT INTO results (compound, result) VALUES
  ('CC(C)(O)CNc1ncc(-c2ccnc(Nc3ccnc(Cl)c3)n2)c(CC2CC2)n1', '75%'),
  ('C=CC(=O)Nc1cccc(C(=O)Nc2ccc(Nc3cc(-c4[nH]c(SC)nc4C)ccn3)cc2)c1', '87%'),
  ('CC(C)NCC(O)COc1ccc(CCOCC2CC2)cc1.Cl (configuration not stated) [BETAXOLOL HYDROCHLORIDE]', '88%'),
  ('O=C1NCN(c2ccccc2)C12CCN(CCCOc1ccc(F)cc1)CC2 [SPIRAMIDE]', '91%'),
  ('CN(C)CC#Cc1ccc(OCCCc2sc(N3CCc4cccc(C(=O)Nc5nc6ccccc6s5)c4C3)nc2C(=O)O)c(F)c1', '94%');

**Query** Tell me Population Mitotic Cells (%) reported for Cc1[nH]c(/C=C2\C(=O)Nc3ccc(S(=O)(=O)N(C)c4cccc(Cl)c4)cc32)c(C)c1C(=O)N1CCN(C)CC1
**Result** 68%

**Query** Tell me Population Mitotic Cells (%) reported for c1cn2cc(-c3ccc4cn[nH]c4c3)nc(Nc3ccc(N4CCOCC4)cc3)c2n1
**Result** 81%

----------
test system: Fibroblast; assay: Multiplex assay against human fibroblast; assay type: toxicity, cell-based; conditions: 12 h, 10 µM, compound concentration 10 uM, replicate 1
Readout: Population Pyknosed Nuclei (%)
Provide the reading as a plain figure in %.

INSERT INTO results (compound, readout, quantitative_result) VALUES
  ('COc1cc(-n2cnc3cc(-c4ccc(Cl)cc4)sc3c2=O)ccc1OCCN1CCCC1', 'Population Pyknosed Nuclei (%)', 40),
  ('CN1CCCC(n2nc(Cc3ccc(Cl)cc3)c3ccccc3c2=O)CC1.Cl (stereo unspecified) [AZELASTINE HYDROCHLORIDE]', 'Population Pyknosed Nuclei (%)', 34),
  ('O=C(NCCN1CCOCC1)c1ccc2c(c1)C(=O)c1ccc(Nc3ccc(F)c(NC(=O)c4ccccc4)c3)cc1CC2', 'Population Pyknosed Nuclei (%)', 14),
  ('Cc1nc(Nc2n[nH]c3c2CN(C(=O)N[C@H](CN(C)C)c2ccccc2)C3(C)C)c2sccc2n1', 'Population Pyknosed Nuclei (%)', 12),
  ('CN(C)C(=O)N[C@H]1CC[C@H](CCN2CCN(c3cccc(Cl)c3Cl)CC2)CC1.Cl [CARIPRAZINE HYDROCHLORIDE]', 'Population Pyknosed Nuclei (%)', 34);

**Query** Give Population Pyknosed Nuclei (%) for this entry on Fibroblast: C=CC(=O)Nc1ccc2ncnc(Nc3ccc(OCc4cccc(F)c4)c(Cl)c3)c2c1.Cc1ccc(S(=O)(=O)O)cc1
**Result** 33

**Query** Give Population Pyknosed Nuclei (%) for this entry on Fibroblast: COc1cc2nccc(Oc3ccc(NC(=O)Nc4cc(C)on4)c(Cl)c3)c2cc1OC.O
**Result** 37

**Query** Give Population Pyknosed Nuclei (%) for this entry on Fibroblast: CN(C)C(=O)/C(C#N)=C/c1ccc(-c2nc3cnc4[nH]ccc4c3n2C2CCCCC2)o1
**Result** 32

**Query** Give Population Pyknosed Nuclei (%) for this entry on Fibroblast: CNc1nc(NCc2ccc(NS(C)(=O)=O)cc2Cl)cc(-c2ccccn2)n1
**Result** 36

**Query** Give Population Pyknosed Nuclei (%) for this entry on Fibroblast: CN1CCN(CCOc2cc(OC3CCOCC3)c3c(Nc4c(Cl)ccc5c4OCO5)ncnc3c2)CC1
**Result** 21

**Query** Give Population Pyknosed Nuclei (%) for this entry on Fibroblast: Cn1c(-c2csc(C3CCN(CC4=NC5N=CC=CC5N4)CC3)n2)nc2ccccc21 (stereo unspecified)
**Result** 15

**Query** Give Population Pyknosed Nuclei (%) for this entry on Fibroblast: CN1CCC[C@@H]1CCO[C@](C)(c1ccccc1)c1ccc(Cl)cc1.O=C(O)/C=C/C(=O)O [CLEMASTINE FUMARATE]
**Result** 29

**Query** Give Population Pyknosed Nuclei (%) for this entry on Fibroblast: Cc1[nH]c(/C=C2\C(=O)Nc3ccc(S(=O)(=O)N(C)c4cccc(Cl)c4)cc32)c(C)c1C(=O)N1CCN(C)CC1
**Result** 18

**Query** Give Population Pyknosed Nuclei (%) for this entry on Fibroblast: Cc1cc(C)cc(-c2cnc3cc(Cl)c(-c4cccc(O)c4)cc3c2OCCCN)c1
**Result** 57

**Query** Give Population Pyknosed Nuclei (%) for this entry on Fibroblast: C=CC(=O)Nc1cccc(C(=O)Nc2ccc(Nc3cc(-c4[nH]c(SC)nc4C)ccn3)cc2)c1
**Result** 22

**Query** Give Population Pyknosed Nuclei (%) for this entry on Fibroblast: CN(C)CC#Cc1ccc(OCCCc2sc(N3CCc4cccc(C(=O)Nc5nc6ccccc6s5)c4C3)nc2C(=O)O)c(F)c1
**Result** 33

----------
tested on: U2OS; assay: Multiplex assay against U2OS; format: toxicity, cell-based; details: human, 12 h, 1 µM, compound concentration 1 uM, replicate 1
Readout: Population Mitotic Cells (%)
Provide the reading as a plain figure in %.

Solved cases below.
INSERT INTO assay_data (molecule, quantitative_result) VALUES
  ('Cn1cc(-c2[nH]c3cc(NC(=O)[C@H](N)C4CCCCC4)cc4c3c2C=NNC4=O)cn1', 55),
  ('COc1cccc([C@@H](C)NCCCc2ccccc2Cl)c1.Cl [TECALCET HYDROCHLORIDE]', 50),
  ('Cc1csc2c(N[C@@H](C)CN3CCN(S(=O)(=O)c4ccc(Cl)c(Cl)c4)CC3)ncnc12', 30);

Now consider the entry below.
**Query** Give Population Mitotic Cells (%) for this entry on U2OS: COc1ncc(-c2ccc3nccc(-c4ccnnc4)c3c2)cc1NS(=O)(=O)c1ccc(F)cc1F [OMIPALISIB]
**Result** 34

----------
system: Fibroblast; test: Multiplex assay against human fibroblast; assay type: toxicity, cell-based; conditions: 24 h, 10 µM, compound concentration 10 uM, replicate 1
Examples of compounds with documented Population Mitotic Cells (%) follow.
Provide the reading as a plain figure in %.

Solved cases below.
INSERT INTO assay_data (compound, assay_system, quantitative_result) VALUES
  ('C=CC(=O)Nc1cccc(C(=O)Nc2ccc(Nc3cc(-c4[nH]c(SC)nc4C)ccn3)cc2)c1', 'Fibroblast', 69),
  ('CN(C)C(=O)/C(C#N)=C/c1ccc(-c2nc3cnc4[nH]ccc4c3n2C2CCCCC2)o1', 'Fibroblast', 64),
  ('COc1cc(-n2cnc3cc(-c4ccc(Cl)cc4)sc3c2=O)ccc1OCCN1CCCC1', 'Fibroblast', 7),
  ('Cn1cc(-c2[nH]c3cc(NC(=O)[C@H](N)C4CCCCC4)cc4c3c2C=NNC4=O)cn1', 'Fibroblast', 37),
  ('COc1cc2nccc(Oc3ccc(NC(=O)Nc4cc(C)on4)c(Cl)c3)c2cc1OC.O', 'Fibroblast', 42);

**Query** Give Population Mitotic Cells (%) for this entry on Fibroblast: CN1CCN(c2ccc(OC(F)(F)F)c(Nc3ncc4c(n3)-c3c(c(C(N)=O)nn3CCO)CC4)c2)CC1
**Result** 41

**Query** Give Population Mitotic Cells (%) for this entry on Fibroblast: CC[C@H](C)C(=O)O[C@H]1C[C@@H](C)C=C2C=C[C@H](C)[C@H](CC[C@@H]3C[C@@H](O)CC(=O)O3)[C@H]21
**Result** 56

**Query** Give Population Mitotic Cells (%) for this entry on Fibroblast: CC(C)NCC(O)COc1ccc(CCOCC2CC2)cc1.Cl (stereo unspecified) [BETAXOLOL HYDROCHLORIDE]
**Result** 25

Value source: ChEMBL document CHEMBL4689842
